Listed compounds paired with reported Hydrolysis rate [%], incubation with lactase
test system: lactase; experiment: Stability with respect to lactase; format: in vitro ADME; details: 0.9 unit lactase, 1% solution, 37° C., 6 h
Measurement Label: Hydrolysis rate [%], incubation with lactase

Compound	Reported Measurement
OCC1O[C@@H](O[C@@H]2C(CO)O[C@H](OC[C@@H](O)[C@@H](O)[C@H](O)C(O)CO)C(O)C2O)C(O)C(O)[C@H]1O (mixture of isomers) [β-1,4-Galactosyl isomalt]	13.4%
OC[C@H]1O[C@@H](O[C@H]2[C@H](O)[C@@H](O)C(O)O[C@@H]2CO)[C@H](O)[C@@H](O)[C@H]1O (stereo partly shown) [Lactose, reference compound]	95.6%
OCC1O[C@@H](OCC2O[C@H](OC[C@@H](O)[C@@H](O)[C@H](O)C(O)CO)C(O)C(O)[C@@H]2O)C(O)C(O)[C@H]1O (mixture of isomers) [β-1,6-Galactosyl isomalt]	9.3%
OCC1O[C@H](OC[C@@H](O)[C@@H](O)[C@H](O)C(O)CO)C(O)C(O[C@@H]2OC(CO)[C@H](O)C(O)C2O)[C@@H]1O (mixture of isomers) [β-1,3-Galactosyl isomalt]	4.8%

----------
experiment: Stability in the stomach: hydrolysis rate at pH 2.0; assay type: physicochemical; settings: incubation time 180 min; 1% solution, 10 mmol/L hydrochloric acid, pH 2.0, 37° C.

Compound	Relation Qualifier	Hydrolysis rate [%] / %
OCC1O[C@@H](OCC2O[C@H](OC[C@@H](O)[C@@H](O)[C@H](O)C(O)CO)C(O)C(O)[C@@H]2O)C(O)C(O)[C@H]1O (mixture of isomers) [β-1,6-Galactosyl isomalt]	<	1
OCC1O[C@@H](O[C@@H]2C(CO)O[C@H](OC[C@@H](O)[C@@H](O)[C@H](O)C(O)CO)C(O)C2O)C(O)C(O)[C@H]1O (mixture of isomers) [β-1,4-Galactosyl isomalt]	<	1
OCC1O[C@H](OC[C@@H](O)[C@@H](O)[C@H](O)C(O)CO)C(O)C(O[C@@H]2OC(CO)[C@H](O)C(O)C2O)[C@@H]1O (mixture of isomers) [β-1,3-Galactosyl isomalt]	<	1
OC[C@H]1O[C@@](CO)(O[C@H]2O[C@H](CO)[C@@H](O)[C@H](O)[C@H]2O)[C@@H](O)[C@@H]1O [Sucrose, reference compound]	=	8
OC[C@H]1O[C@@](CO)(OC[C@@]2(O[C@H]3O[C@H](CO)[C@@H](O)[C@H](O)[C@H]3O)O[C@H](CO)[C@@H](O)[C@@H]2O)[C@@H](O)[C@@H]1O [1-Kestose, reference compound]	=	36

----------
system: glucoamylase/maltase (GM complex); assay: Stability with respect to small intestine α-glucosidases: glucoamylase/maltase; details: Standard (0.7 unit), 120 min incubation, 37° C., pH 7.0

Compound	Study System	Hydrolysis rate [%]
OCC1O[C@@H](OCC2O[C@H](OC[C@@H](O)[C@@H](O)[C@H](O)C(O)CO)C(O)C(O)[C@@H]2O)C(O)C(O)[C@H]1O (mixture of isomers)	glucoamylase/maltase (GM complex)	0%
OCC1O[C@@H](O[C@@H]2C(CO)O[C@H](OC[C@@H](O)[C@@H](O)[C@H](O)C(O)CO)C(O)C2O)C(O)C(O)[C@H]1O (mixture of isomers)	glucoamylase/maltase (GM complex)	0%
OCC1O[C@H](OC[C@@H](O)[C@@H](O)[C@H](O)C(O)CO)C(O)C(O[C@@H]2OC(CO)[C@H](O)C(O)C2O)[C@@H]1O (mixture of isomers)	glucoamylase/maltase (GM complex)	0%

----------
Listed compounds paired with reported Hydrolysis rate [%]
test: Stability in the stomach: hydrolysis rate at pH 2.0; assay type: physicochemical; settings: incubation time 60 min; 1% solution, 10 mmol/L hydrochloric acid, pH 2.0, 37° C.

Compound	Hydrolysis rate [%] [%]
OCC1O[C@@H](O[C@@H]2C(CO)O[C@H](OC[C@@H](O)[C@@H](O)[C@H](O)C(O)CO)C(O)C2O)C(O)C(O)[C@H]1O (mixture of isomers)	0
OC[C@H]1O[C@@](CO)(O[C@H]2O[C@H](CO)[C@@H](O)[C@H](O)[C@H]2O)[C@@H](O)[C@@H]1O [Sucrose, reference compound]	2
OC[C@H]1O[C@@](CO)(OC[C@@]2(O[C@H]3O[C@H](CO)[C@@H](O)[C@H](O)[C@H]3O)O[C@H](CO)[C@@H](O)[C@@H]2O)[C@@H](O)[C@@H]1O [1-Kestose, reference compound]	11
OCC1O[C@@H](OCC2O[C@H](OC[C@@H](O)[C@@H](O)[C@H](O)C(O)CO)C(O)C(O)[C@@H]2O)C(O)C(O)[C@H]1O (mixture of isomers)	0
OCC1O[C@H](OC[C@@H](O)[C@@H](O)[C@H](O)C(O)CO)C(O)C(O[C@@H]2OC(CO)[C@H](O)C(O)C2O)[C@@H]1O (mixture of isomers)	0
